Where do these numbers come from? They come from paper PMC11270681.

Quick reference for pIC50 among some molecules
Tested on: OVC-3
test_protocol: Cytotoxicity (PrestoBlue), ovarian cancer line
Type: cell-based
condition_summary: OVC-3, 72 h incubation
The quantity pIC50 is defined as the negative base-10 logarithm of the molar concentration.

Field: example entries. Status: answers known.
Cc1c(C)n(Cc2ccccc2)[c](=[Ag][Cl])n1Cc1ccccc1 [Ag-LA] ... 4.79
N.N.[Cl][Pt][Cl] [Cisplatin, cisplatin, reference compound] ... 5.18
Cc1c(C)n(Cc2ccccc2)[c](=[Cu][Cl])n1Cc1ccccc1 [Cu-LA] ... 4.23
Cc1c(C)[n+](Cc2ccccc2)cn1Cc1ccccc1.[Cl-] [LA] ... 4.32
Cc1c(C)n(Cc2ccccc2)[c](=[Au][Cl])n1Cc1ccccc1 [Au-LA] ... 4.78

Hello, please tell me recorded pIC50 for this one: CC(=O)OC[C@H]1O[C@@H]([S-])[C@H](OC(C)=O)[C@@H](OC(C)=O)[C@@H]1OC(C)=O.CCP(CC)CC.[Au+] [Auranofin, auranofin, reference compound]
5.77

* * *

Test system: BM-MSC
test_protocol: Cytotoxicity (PrestoBlue), bone marrow-derived mesenchymal stem cells
Assay type: cell-based
condition_summary: BMMSC, 96 h incubation
property_measured: pIC50
To interpret pIC50, take it as minus log10 of a concentration measured in moles per litre.

COc1cccc2c1C(=O)c1c(O)c3c(c(O)c1C2=O)C[C@@](O)(C(=O)CO)C[C@@H]3O[C@H]1C[C@H](N)[C@H](O)[C@H](C)O1 [Doxorubicin, doxorubicin, reference compound] ... 7.00

Query pIC50 for Cc1c(C)[n+](Cc2ccccc2)cn1Cc1ccccc1.[Cl-]
4.16
